# target entity: human recombinant HDAC6 (Homo sapiens)
# Construct: purchased Calbiochem Inc. 382180
# Sequence (Q9UBN7 1-1215): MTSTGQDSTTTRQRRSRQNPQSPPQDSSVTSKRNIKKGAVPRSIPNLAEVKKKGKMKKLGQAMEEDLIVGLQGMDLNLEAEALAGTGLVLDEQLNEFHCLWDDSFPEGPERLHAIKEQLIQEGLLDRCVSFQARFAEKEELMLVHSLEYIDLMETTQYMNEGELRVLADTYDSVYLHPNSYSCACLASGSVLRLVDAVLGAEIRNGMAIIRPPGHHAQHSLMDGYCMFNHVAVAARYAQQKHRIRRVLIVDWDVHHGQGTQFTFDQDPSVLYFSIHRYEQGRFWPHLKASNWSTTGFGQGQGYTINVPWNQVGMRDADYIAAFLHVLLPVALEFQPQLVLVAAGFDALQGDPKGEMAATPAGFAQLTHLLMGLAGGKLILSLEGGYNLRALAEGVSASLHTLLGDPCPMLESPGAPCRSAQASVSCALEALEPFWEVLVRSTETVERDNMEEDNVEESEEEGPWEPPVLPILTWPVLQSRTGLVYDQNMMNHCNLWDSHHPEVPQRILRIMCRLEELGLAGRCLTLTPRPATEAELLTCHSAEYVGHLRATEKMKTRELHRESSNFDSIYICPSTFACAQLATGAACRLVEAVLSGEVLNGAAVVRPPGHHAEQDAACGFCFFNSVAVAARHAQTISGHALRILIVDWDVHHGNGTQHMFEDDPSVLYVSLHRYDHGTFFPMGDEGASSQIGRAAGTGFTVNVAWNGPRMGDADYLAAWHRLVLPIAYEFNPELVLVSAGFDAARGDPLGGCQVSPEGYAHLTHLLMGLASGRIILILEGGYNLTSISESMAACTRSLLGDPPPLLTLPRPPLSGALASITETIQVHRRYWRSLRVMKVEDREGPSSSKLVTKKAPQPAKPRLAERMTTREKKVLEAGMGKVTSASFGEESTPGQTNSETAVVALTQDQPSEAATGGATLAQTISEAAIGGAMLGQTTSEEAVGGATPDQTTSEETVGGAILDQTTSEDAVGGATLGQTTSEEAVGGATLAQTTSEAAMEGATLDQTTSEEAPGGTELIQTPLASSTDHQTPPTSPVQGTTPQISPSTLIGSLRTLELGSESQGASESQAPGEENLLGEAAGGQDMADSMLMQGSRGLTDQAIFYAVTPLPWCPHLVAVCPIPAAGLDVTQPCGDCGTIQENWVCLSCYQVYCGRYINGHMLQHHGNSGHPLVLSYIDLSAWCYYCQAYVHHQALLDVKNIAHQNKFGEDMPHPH
# experimental protocol: In vitro HDAC enzyme activity inhibition assay (HDAC6)
# Format: biochemical
# condition: HDAC6 over HDAC1
experimental readout: HDAC6 selectivity (fold)
# number only, unit fold dropped from output

Example molecules with recorded HDAC6 selectivity (fold):
- chemical string: "O=S(=O)(C1CCN(c2ncccn2)CC1)N(Cc1cn2ccc(-c3nnc(C(F)F)o3)cc2n1)c1ccccc1"
  u: "fold"
  result: 486
- chemical string: "O=S(=O)(C1CCN(C2CCC(F)(F)CC2)CC1)N(Cc1cn2ccc(-c3nnc(C(F)F)o3)cc2n1)c1ccccc1"
  u: "fold"
  result: 320
- chemical string: "CS(=O)(=O)N1CCC(S(=O)(=O)N(Cc2cn3ccc(-c4nnc(C(F)F)o4)cc3n2)c2cccc(F)c2)CC1"
  u: "fold"
  result: 525
- chemical string: "CS(=O)(=O)N1CCN(S(=O)(=O)N(Cc2cn3ccc(-c4nnc(C(F)F)o4)cc3n2)c2cccc(F)c2)CC1"
  u: "fold"
  result: 530

Memo: CN1CCN(S(=O)(=O)N(Cc2cn3ccc(-c4nnc(C(F)F)o4)cc3n2)c2ccccc2)CC1 , reported HDAC6 selectivity (fold): 630

Query O=S(=O)(C1CCN(C2CC3(COC3)C2)CC1)N(Cc1cn2ccc(-c3nnc(C(F)F)o3)cc2n1)c1cccc(F)c1 yields HDAC6 selectivity (fold) of 666

Recorded result, CN1CCC(S(=O)(=O)N(Cc2cn3ccc(-c4nnc(C(F)F)o4)cc3n2)c2ccccc2)CC1 , HDAC6 selectivity (fold): 549
